These measurements were taken from the RNAGym collection of RNA variant scans (doi:10.1073/pnas.2313332121).

This section presents variants with their documented polymerase ribozyme fitness (log ratio) values.
B1: TPR 5TU (parent)
chain: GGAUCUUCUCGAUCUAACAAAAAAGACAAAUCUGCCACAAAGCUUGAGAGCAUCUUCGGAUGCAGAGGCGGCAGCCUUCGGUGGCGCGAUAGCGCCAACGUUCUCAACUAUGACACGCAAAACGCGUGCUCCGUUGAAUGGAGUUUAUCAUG

variants of: B1; assay: polymerase ribozyme fitness, log enrichment relative to wild type (log ratio); higher = more active; in vitro selection for triplet polymerase activity
Fewer inactive variants are shown than the library holds.
The response must contain the number and no unit.

Check out these entries, answers already filled in.
C76U G84U A98U = -1.66
A22U C51U A137G A147C = -2.48
A106G C125A = -0.665

**Query** Note down polymerase ribozyme fitness (log ratio) recorded for A41C A97G A121G
**Result** -0.295

**Query** Please give the documented polymerase ribozyme fitness (log ratio) of C5A C69G G84A C108U
**Result** -3.39

**Query** In one line, give reported polymerase ribozyme fitness (log ratio) of the entry C87U G152C .
**Result** -3.17

**Query** Give me measured polymerase ribozyme fitness (log ratio), please, for this variant: C85U U127C U145A
**Result** -3.58

**Query** Give me measured polymerase ribozyme fitness (log ratio), please, for this variant: A22U C87A
**Result** -4.14

**Query** Please report polymerase ribozyme fitness (log ratio) for the following variant: A24G U145A
**Result** -3.78

**Query** Name the recorded polymerase ribozyme fitness (log ratio) of the item A137U G143U in your answer.
**Result** -3.39

**Query** Give polymerase ribozyme fitness (log ratio) for the following variant: U53A U55G C57A
**Result** 0.733

**Query** Provide polymerase ribozyme fitness (log ratio) value for the following variant: A60U G136C U139G
**Result** -3.71
